tested system: Coagulation factor XI (Homo sapiens) (UniProt P03951)
Sequence (P03951 19-387 limits assumed): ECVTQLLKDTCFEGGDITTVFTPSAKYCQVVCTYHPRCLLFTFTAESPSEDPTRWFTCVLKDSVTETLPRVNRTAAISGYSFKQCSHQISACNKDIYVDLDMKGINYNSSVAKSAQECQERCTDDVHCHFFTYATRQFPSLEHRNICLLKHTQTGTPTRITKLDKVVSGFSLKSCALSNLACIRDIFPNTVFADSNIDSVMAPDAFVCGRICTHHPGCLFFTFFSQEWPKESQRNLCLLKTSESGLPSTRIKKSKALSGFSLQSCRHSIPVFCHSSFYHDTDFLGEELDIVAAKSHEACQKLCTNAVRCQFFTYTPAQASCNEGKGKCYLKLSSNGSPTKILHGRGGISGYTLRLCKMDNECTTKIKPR
Sequence (P03951 388-625 limits assumed): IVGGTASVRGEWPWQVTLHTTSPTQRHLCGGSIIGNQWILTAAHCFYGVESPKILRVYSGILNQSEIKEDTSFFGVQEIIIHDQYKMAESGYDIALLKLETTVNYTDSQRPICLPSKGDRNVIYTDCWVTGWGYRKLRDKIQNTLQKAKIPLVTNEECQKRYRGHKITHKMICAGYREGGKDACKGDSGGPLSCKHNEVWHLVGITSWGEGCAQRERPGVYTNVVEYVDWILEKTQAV
procedure text: Inhibition of factor 11a at 222 uM after 10 min
property label: inhibition (%)

Input line: Tell me the measured inhibition of N=C(N)NCCCCNC(=O)C1=NOC2(C=C(Br)C(=O)C(Br)=C2)C1 , please.
Output line: 17

Input line: How about COC1=C(Br)[C@H](O)[C@@]2(C=C1Br)CC(C(=O)NCCCCNC(=N)N)=NO2 ?
Output line: 12

Input line: How about N=C(N)NCCCCNC(=O)/C(Cc1ccc(O)c(Br)c1)=N/O ?
Output line: 37

Input line: How about N=C(N)NCCCCCNC(=O)C1=NOC2(C=C(Br)C(=O)C(Br)=C2)C1 ?
Output line: 30

a: COC1=C(Br)[C@H](O)[C@@]2(C=C1Br)CC(C(=O)NCCCCCNC(=N)N)=NO2
b: COC1=C(Br)[C@@H](O)[C@]2(C=C1Br)CC(C(=O)NCCc1cnc[nH]1)=NO2
Input line: Which record would sort first by descending inhibition, a or b ? Lab log: write the label of the selected item as the result.
Output line: b
(b: 59%, a: 30%)

Cited source: ChEMBL document CHEMBL1152345
